- ASSAY PROCEDURE: Fraction unbound in rat plasma at 5 uM by rapid equilibrium dialysis method
- Assay type: ADME, cell-free
QUANTITY NAME: fraction unbound at 5 µM
Numbers only.

fraction unbound at 5 µM in this record for C=CC(=O)Nc1cccc(-n2c(=O)cc(C)c3cnc(Nc4ccc(OCCN(C)C)cc4OC)nc32)c1 : 0.27

---

- Test system: rat MDR1 (P-gp)
- ASSAY PROCEDURE: Permeability across pig LLC-PK1 cells transfected with rat MDR1 gene
- Type: ADME, cell-based, Sus scrofa
- CONDITIONS USED: read-out: permeability
QUANTITY NAME: Papp (×10⁻⁶ cm/s)
Numbers only, in ×10⁻⁶ cm/s.

The compound C=CC(=O)Nc1cccc(-n2c(=O)cc(C)c3cnc(Nc4ccc(OCCN(C)C)cc4OC)nc32)c1 showed Papp equal to 10

---

- TEST TARGET: Cyclin-G-associated kinase (Homo sapiens, UniProt O14976)
- Sequence (O14976 whole entry): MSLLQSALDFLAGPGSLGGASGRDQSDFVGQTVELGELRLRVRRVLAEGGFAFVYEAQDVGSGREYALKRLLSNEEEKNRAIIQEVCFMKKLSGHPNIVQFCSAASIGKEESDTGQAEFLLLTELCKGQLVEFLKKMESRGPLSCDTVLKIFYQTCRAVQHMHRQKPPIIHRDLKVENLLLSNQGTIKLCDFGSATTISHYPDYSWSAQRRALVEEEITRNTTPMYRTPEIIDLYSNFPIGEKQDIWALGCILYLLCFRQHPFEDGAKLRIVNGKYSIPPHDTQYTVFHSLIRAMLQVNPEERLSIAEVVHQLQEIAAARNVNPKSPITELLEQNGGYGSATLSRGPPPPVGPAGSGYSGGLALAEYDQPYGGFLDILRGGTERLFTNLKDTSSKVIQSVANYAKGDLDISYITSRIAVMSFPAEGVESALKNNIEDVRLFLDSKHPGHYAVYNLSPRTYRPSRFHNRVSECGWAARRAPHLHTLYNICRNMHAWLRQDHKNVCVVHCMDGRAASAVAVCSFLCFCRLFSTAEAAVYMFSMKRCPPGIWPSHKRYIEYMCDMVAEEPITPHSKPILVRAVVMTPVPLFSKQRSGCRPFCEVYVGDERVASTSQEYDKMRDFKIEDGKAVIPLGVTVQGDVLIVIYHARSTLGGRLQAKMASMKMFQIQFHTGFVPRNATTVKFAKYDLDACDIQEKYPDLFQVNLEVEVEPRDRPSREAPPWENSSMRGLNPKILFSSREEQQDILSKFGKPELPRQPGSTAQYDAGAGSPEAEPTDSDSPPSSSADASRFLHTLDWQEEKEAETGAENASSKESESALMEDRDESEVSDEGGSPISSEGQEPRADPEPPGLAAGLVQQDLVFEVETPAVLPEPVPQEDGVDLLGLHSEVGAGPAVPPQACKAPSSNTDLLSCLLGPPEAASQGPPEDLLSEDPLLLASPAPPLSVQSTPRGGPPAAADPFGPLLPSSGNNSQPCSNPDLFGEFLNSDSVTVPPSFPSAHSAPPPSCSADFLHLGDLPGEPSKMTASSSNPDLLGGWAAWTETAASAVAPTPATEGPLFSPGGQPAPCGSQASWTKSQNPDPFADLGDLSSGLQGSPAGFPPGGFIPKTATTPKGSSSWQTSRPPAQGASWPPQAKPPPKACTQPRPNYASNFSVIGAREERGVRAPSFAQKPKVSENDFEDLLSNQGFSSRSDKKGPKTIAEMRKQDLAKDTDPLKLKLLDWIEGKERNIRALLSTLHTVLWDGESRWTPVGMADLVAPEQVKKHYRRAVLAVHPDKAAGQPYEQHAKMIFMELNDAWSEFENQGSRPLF
- ASSAY PROCEDURE: Competitive binding affinity to human GAK in presence of immobilized ligand
QUANTITY NAME: pKd
Give bare numbers, as −log10 of the molar value.

Summary for this compound, C=CC(=O)Nc1cccc(-n2c(=O)cc(C)c3cnc(Nc4ccc(OCCN(C)C)cc4OC)nc32)c1 : pKd is 6.37

---

- TEST TARGET: Epidermal growth factor receptor (Homo sapiens, UniProt P00533, L858R/T790M)
- Sequence (P00533 25-1210 T790M/L858R limits assumed): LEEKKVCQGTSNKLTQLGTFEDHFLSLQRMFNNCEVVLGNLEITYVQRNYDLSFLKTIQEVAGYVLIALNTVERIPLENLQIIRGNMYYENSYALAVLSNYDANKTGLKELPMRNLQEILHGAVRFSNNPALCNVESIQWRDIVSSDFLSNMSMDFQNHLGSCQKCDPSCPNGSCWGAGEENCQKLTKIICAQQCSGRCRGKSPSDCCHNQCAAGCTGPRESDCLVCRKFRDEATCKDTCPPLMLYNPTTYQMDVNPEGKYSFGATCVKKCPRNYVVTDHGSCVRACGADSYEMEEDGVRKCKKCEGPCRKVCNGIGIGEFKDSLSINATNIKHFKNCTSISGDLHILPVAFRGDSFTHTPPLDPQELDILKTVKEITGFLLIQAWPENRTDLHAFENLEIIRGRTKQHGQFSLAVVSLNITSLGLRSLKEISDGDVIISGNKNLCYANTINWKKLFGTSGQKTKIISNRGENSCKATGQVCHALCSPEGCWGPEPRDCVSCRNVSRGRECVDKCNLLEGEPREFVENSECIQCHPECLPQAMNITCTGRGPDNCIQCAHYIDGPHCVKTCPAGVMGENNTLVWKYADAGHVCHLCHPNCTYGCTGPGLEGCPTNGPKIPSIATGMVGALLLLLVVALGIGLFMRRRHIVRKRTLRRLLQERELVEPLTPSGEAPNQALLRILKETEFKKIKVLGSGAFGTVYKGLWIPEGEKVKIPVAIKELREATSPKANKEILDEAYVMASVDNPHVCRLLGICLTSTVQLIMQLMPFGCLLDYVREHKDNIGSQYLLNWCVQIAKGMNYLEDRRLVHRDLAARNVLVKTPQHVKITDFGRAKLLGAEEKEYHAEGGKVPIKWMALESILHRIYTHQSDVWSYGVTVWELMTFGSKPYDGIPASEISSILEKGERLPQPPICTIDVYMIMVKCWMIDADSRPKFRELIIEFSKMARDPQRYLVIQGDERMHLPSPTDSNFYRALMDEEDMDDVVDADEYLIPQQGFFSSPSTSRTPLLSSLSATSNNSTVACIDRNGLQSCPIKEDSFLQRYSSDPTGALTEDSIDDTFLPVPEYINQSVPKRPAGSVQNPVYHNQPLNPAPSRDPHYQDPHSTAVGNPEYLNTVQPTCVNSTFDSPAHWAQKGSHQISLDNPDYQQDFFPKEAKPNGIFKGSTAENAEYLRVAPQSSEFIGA
- ASSAY PROCEDURE: Inhibition of EGFR L858R/T790M double mutant phosphorylation in human NCI-H1975 cells after 60 mins by mesoscale multiplex assay
- Format: cell-based
QUANTITY NAME: IC50
Please answer using the number first and the unit second.

Some solved cases for reference:
{"MOL SMILES": "C=CC(=O)Nc1cccc(-n2c(=O)cc(C)c3cnc(Nc4ccc(N5CCN(C)CC5)cc4OC)nc32)c1", "IC50": "4 nM"}
{"MOL SMILES": "C=CC(=O)Nc1cccc(-n2c(=O)cc(C)c3cnc(Nc4ccc(N(C)CCN(C)C)cc4OC)nc32)c1", "IC50": "6 nM"}

Continue with the next molecule.
The reported value for C=CC(=O)Nc1cccc(-n2c(=O)ccc3cnc(Nc4ccc(N5CCN(C)CC5)cc4OC)nc32)c1 in terms of IC50 is 3 nM

---

- TEST TARGET: Epidermal growth factor receptor (Homo sapiens, UniProt P00533, L858R/T790M)
- ASSAY PROCEDURE: Binding affinity to EGFR T790M/L858R double mutant (unknown origin)
QUANTITY NAME: Kd

GET /value?item= C=CC(=O)Nc1cccc(-n2c3nc(Nc4ccc(N5CCC(N(C)C)CC5)cc4OC)ncc3c(=O)n3ccnc23)c1 &field=Kd returns 2.6 nM

---

- TEST TARGET: Receptor tyrosine-protein kinase erbB-4 (Homo sapiens, UniProt Q15303)
- Sequence (Q15303 whole entry): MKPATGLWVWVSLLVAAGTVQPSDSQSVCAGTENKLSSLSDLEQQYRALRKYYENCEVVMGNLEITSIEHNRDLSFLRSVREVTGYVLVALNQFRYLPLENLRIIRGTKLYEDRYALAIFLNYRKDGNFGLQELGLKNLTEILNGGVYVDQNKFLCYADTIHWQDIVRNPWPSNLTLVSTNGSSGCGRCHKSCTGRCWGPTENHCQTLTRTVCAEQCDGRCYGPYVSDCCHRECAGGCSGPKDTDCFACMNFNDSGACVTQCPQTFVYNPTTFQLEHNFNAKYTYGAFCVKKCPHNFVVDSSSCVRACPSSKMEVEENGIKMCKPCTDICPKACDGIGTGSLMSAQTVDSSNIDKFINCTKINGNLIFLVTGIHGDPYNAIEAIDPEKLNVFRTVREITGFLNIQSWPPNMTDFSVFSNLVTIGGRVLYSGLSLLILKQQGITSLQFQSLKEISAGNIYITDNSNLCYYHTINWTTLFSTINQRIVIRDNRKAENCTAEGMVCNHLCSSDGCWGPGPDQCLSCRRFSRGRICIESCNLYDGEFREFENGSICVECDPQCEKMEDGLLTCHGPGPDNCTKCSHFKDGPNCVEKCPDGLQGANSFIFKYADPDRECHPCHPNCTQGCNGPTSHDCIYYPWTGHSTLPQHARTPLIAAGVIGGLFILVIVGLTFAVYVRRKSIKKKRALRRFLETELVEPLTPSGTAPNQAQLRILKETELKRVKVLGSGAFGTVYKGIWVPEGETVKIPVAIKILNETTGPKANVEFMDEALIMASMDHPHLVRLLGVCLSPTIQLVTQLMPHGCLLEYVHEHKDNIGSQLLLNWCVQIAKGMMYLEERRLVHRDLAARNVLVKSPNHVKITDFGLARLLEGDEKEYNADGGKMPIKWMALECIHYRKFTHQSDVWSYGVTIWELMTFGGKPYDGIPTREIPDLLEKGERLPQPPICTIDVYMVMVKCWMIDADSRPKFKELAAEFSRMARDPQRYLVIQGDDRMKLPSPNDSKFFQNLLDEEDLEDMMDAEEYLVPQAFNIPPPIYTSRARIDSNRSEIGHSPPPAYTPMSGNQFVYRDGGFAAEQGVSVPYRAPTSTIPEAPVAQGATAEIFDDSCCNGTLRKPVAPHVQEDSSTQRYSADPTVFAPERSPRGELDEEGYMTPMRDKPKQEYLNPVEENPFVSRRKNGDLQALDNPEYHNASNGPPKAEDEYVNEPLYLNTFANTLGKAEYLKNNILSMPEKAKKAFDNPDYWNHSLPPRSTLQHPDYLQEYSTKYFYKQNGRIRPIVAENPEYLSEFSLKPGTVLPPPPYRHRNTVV
- ASSAY PROCEDURE: Competitive binding affinity to human ERBB4 in presence of immobilized ligand
QUANTITY NAME: pKd
Answers are plain numbers, as −log10 of the molar value.

// pKd value for C=CC(=O)Nc1cccc(-n2c(=O)cc(C)c3cnc(Nc4ccc(OCCN(C)C)cc4OC)nc32)c1 : 6.89

---

- TEST TARGET: Tyrosine-protein kinase ITK/TSK (Homo sapiens)
- Sequence (Q08881 whole entry): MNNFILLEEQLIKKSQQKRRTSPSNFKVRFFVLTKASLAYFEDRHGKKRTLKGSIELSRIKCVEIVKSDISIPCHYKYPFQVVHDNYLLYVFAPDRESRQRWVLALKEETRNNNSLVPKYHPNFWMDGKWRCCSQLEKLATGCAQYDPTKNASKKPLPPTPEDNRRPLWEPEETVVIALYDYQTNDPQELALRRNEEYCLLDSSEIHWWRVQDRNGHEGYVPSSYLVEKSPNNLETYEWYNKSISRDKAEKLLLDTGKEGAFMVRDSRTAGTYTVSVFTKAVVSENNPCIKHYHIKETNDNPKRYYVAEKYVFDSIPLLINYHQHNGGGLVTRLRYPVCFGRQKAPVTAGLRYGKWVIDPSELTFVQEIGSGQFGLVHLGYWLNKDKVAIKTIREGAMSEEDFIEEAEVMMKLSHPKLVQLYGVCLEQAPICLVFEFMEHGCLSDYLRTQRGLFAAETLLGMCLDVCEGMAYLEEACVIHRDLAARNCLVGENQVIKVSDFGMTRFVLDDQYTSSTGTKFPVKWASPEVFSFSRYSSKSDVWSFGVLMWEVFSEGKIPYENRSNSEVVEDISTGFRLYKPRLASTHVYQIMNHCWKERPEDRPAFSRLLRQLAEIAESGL
- ASSAY PROCEDURE: Competitive binding affinity to human ITK in presence of immobilized ligand
QUANTITY NAME: pKd
Numbers only, as −log10 of the molar value.

Note to self: pKd recorded for C=CC(=O)Nc1cccc(-n2c(=O)cc(C)c3cnc(Nc4ccc(OCCN(C)C)cc4OC)nc32)c1 was 6.85

---

I'd appreciate it if you could supply IC50 values for the items below.
- TEST TARGET: Epidermal growth factor receptor (Homo sapiens, UniProt P00533, 746-750DEL)
- Sequence (P00533 whole entry, looked up, stated change not applied): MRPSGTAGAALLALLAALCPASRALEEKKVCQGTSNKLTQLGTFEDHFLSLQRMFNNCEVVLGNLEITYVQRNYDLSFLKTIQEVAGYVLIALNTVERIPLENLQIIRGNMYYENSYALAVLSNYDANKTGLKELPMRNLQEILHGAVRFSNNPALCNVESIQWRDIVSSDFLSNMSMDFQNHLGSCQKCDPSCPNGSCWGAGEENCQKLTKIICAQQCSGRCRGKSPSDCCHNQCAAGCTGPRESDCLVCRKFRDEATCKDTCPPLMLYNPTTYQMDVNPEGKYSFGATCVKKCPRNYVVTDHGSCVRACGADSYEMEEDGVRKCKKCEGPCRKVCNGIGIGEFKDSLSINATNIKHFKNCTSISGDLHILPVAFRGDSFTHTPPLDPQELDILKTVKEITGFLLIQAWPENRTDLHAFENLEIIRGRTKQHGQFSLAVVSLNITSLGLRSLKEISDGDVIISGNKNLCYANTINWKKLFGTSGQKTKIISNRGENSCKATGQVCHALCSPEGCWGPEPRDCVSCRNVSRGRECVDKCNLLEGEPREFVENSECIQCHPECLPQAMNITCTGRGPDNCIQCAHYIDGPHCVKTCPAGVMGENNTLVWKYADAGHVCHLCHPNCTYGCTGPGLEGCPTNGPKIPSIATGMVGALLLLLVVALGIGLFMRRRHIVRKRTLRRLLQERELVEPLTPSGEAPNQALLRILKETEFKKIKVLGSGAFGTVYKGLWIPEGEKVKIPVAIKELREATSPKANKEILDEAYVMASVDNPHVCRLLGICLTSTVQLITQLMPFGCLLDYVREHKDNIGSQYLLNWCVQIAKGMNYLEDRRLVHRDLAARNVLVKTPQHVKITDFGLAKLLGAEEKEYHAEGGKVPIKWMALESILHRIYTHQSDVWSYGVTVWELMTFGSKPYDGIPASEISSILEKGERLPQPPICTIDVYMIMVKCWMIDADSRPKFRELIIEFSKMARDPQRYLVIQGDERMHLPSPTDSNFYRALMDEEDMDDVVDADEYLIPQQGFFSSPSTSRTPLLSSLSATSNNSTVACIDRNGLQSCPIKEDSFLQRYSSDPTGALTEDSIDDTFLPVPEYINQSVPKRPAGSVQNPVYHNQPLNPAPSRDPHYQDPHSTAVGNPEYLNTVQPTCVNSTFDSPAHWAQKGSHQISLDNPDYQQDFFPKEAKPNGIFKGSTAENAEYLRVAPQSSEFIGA
- ASSAY PROCEDURE: Inhibition of EGFR 746 to 750 deletion mutant phosphorylation in human HCC827 cells after 60 mins by mesoscale multiplex assay
Give bare numbers, in nM.

Example results:
{"MOL SMILES": "C=CC(=O)Nc1cccc(-n2c(=O)ccc3cnc(Nc4ccc(N5CCN(C)CC5)cc4OC)nc32)c1", "IC50 [nM]": 3}
{"MOL SMILES": "C=CC(=O)Nc1cccc(-n2c(=O)cc(C)c3cnc(Nc4ccc(N5CCN(C)CC5)cc4OC)nc32)c1", "IC50 [nM]": 12}
{"MOL SMILES": "C=CC(=O)Nc1cccc(-n2c(=O)cc(C)c3cnc(Nc4ccc(OCCN(C)C)cc4OC)nc32)c1", "IC50 [nM]": 9}

Considering C=CC(=O)Nc1cccc(-n2c(=O)cc(C)c3cnc(Nc4ccc(N(C)CCN(C)C)cc4OC)nc32)c1 , its IC50 with Epidermal growth factor receptor (Homo sapiens, UniProt P00533, 746-750DEL) was recorded as 12

---

For each record, write down the corresponding half-life.
- ASSAY PROCEDURE: Half life in Sprague-Dawley rat at 1 mg/kg, iv
- Type: ADME, organism-based
- CONDITIONS USED: in vivo
One number for each entry, in h.

The following molecules have reported results that may help.
{"MOL SMILES": "C=CC(=O)Nc1cccc(-n2c(=O)ccc3cnc(Nc4ccc(N5CCN(C)CC5)cc4OC)nc32)c1", "half-life (h)": 1.4}
{"MOL SMILES": "C=CC(=O)Nc1cccc(-n2c(=O)cc(C)c3cnc(Nc4ccc(N(C)CCN(C)C)cc4OC)nc32)c1", "half-life (h)": 2.6}
{"MOL SMILES": "C=CC(=O)Nc1cccc(-n2c(=O)cc(C)c3cnc(Nc4ccc(OCCN(C)C)cc4OC)nc32)c1", "half-life (h)": 4.5}

get_value(item= C=CC(=O)Nc1cccc(-n2c(=O)cc(C)c3cnc(Nc4ccc(N5CCN(C)CC5)cc4OC)nc32)c1 , readout=half-life) returns 3
